The reader will find reported GI50 values listed item by item below.
- System: HT-29 colon cancer cells
- protocol notes: Antiproliferation assay in HT-29 cells by CellTiter Glo
- Type: cell-based
- setup conditions: Homo sapiens, 72 hours or 144 hours

Observe how each entry below is paired with its result.
1. CCCS(=O)(=O)Nc1cccc(Oc2ccc3c(c2)C2=NCCCN2C=N3)c1C#N = < 0.1 µM
2. CCCS(=O)(=O)Nc1cccc(Oc2ccc3c(c2)C2=NCCCN2C=N3)c1F = 0.1 to 1 µM

GI50 recorded for this compound, `CCCS(=O)(=O)Nc1cccc(Oc2ccc3c(c2)C2=NCCCN2C=N3)c1Cl` , is < 0.1 µM

Looking up `CCCS(=O)(=O)Nc1nccc(Oc2ccc3c(c2)C2=NCCCN2C=N3)c1[N+](=O)[O-]` , I see its GI50 listed as > 1 µM

// field: GI50; key: `CCCS(=O)(=O)Nc1cccc(Oc2ccc3c(c2)C2=NCCN2C=N3)c1Cl` ; value = 0.1 to 1 µM

So, `CCCS(=O)(=O)Nc1cccc(Oc2ccc3c(c2)C2=NCCN2C=N3)c1C#N` ? Its GI50 was < 0.1 µM

The measured GI50 associated with `CCCS(=O)(=O)Nc1nccc(Oc2ccc3c(c2)C2=NCCCN2C=N3)c1Cl` reads < 0.1 µM
